meta.source: patent US10858316B2

Items are presented alongside their recorded Ki.
measured_on: Mcl-1 (Homo sapiens (Human))
Sequence (Q07820 172-327): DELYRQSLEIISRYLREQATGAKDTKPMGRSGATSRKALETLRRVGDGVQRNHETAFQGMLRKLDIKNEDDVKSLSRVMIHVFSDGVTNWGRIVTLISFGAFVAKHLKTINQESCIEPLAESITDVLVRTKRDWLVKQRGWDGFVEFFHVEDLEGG
experimental_protocol: Fluorescence polarization competition assay (FPCA), Mcl-1 / FITC-Bak BH3 peptide
Assay type: binding
reported_conditions: FPCA with FITC-Bak; Ki from IC50 by Nikolovska-Coleska equation; read-out: Mcl-1 Ki
Description: The tagged protein was initially purified from the crude cell lysate by immobilized metal affinity chromatography (IMAC) chromatography (GE Healthcare Life Sciences), and after dialysis to remove the imidazole the affinity tag was cleaved using PreScission Protease (GE Healthcare Life Sciences). […] The target molecules were assayed for their abilities to disrupt the Mcl-1-Bak-BH3 PPI in a fluorescence polarization competition (FPC) assay with Mcl-1 and FITC-labeled Bak-BH3 peptide. […]

Reference set (3 entries):
COC(=O)c1cc(S(=O)(=O)N(CC(C)C)c2ccc(Br)cc2)c2ccccc2c1O [Compound 3cb] : > 500 µM
CC(C)CN(c1cccc(C(=O)O)c1)S(=O)(=O)c1ccc(F)cc1 [4jc177-6 18ad] : > 500 µM
CC(=O)OCOC(=O)C1Cc2ccccc2N(S(=O)(=O)c2ccc(Oc3cc(C)c(Cl)c(C)c3)cc2)C1 (racemic) [±-12] : > 500 µM

GET /value?item= O=C(O)c1ccc2c(c1)CCCN2S(=O)(=O)c1ccc(F)cc1 [LC-3-010] &field=Ki returns > 1000 µM

So, CC(C)CN(c1ccc(C(=O)O)cc1)S(=O)(=O)c1ccccc1 [LC-3-029 8a] ? Its Ki was > 500 µM
